# target_entity: Lysine-specific demethylase 4D (Homo sapiens, UniProt Q6B0I6)
# Sequence (Q6B0I6 whole entry): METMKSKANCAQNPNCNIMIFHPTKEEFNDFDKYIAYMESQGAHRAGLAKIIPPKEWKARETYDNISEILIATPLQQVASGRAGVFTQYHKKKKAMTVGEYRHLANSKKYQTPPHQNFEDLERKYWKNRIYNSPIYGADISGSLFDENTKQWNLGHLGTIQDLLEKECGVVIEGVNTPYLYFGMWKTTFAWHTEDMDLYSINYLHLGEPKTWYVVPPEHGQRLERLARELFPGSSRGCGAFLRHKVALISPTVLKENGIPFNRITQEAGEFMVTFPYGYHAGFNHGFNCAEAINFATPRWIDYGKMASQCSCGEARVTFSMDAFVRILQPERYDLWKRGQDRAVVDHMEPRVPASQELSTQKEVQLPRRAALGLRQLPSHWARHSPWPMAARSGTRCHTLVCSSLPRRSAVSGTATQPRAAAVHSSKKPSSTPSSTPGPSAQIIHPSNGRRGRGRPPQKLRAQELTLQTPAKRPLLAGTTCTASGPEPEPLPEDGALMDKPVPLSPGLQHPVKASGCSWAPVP
# assay_method_text: Inhibition of human KDM4D expressed in Escherichia coli BL21 (DE3) using biotinylated H3-derived peptide and 2-OG as substrate preincubated for 15 mins followed by substrate addition and measured after 1 hr by AlphaLISA assay
pIC50: −log10 of the molar value.
Reported pIC50 values for the following molecules.

{"columns": ["molecule", "pIC50"],
 "data": [
  ["CC(C)(C)OC(=O)N[C@@H]1CCN(C(c2ccc(F)cc2)c2cc3c(cc2O)OCO3)C1 (stereo partly drawn)", 6.72],
  ["CC(C)(C)NC(=S)N[C@@H]1CCN(C(c2ccncc2)c2cc3c(cc2O)OCO3)C1 (stereo partly drawn)", 6.77],
  ["O=C(NC1CC1)[C@@H]1CCN(C(c2ccncc2)c2cc3c(cc2O)OCO3)C1 (stereo partly drawn)", 6.26],
  ["O=C(N[C@@H]1CCN(C(c2ccncc2)c2cc3c(cc2O)OCO3)C1)C1CC1 (stereo partly drawn)", 6.81],
  ["O=C(N[C@H]1CCN(C(c2ccncc2)c2cc3c(cc2O)OCO3)C1)C1CC1 (stereo partly drawn)", 6.05],
  ["CC(C)(C)OC(=O)N[C@@H]1CCN(C(c2ccc(-n3cccc3)cc2)c2cc3c(cc2O)OCO3)C1 (stereo partly drawn)", 6.35],
  ["CC(C)(C)OC(=O)N[C@@H]1CCN(C(c2ccc(-c3ccncc3)cn2)c2cc3c(cc2O)OCO3)C1 (stereo partly drawn)", 6.90],
  ["CC(C)(C)OC(=O)N[C@@H]1CCN(C(c2cc3c(cc2O)OCO3)c2ccc(Cl)cc2F)C1 (stereo partly drawn)", 6.95],
  ["CC(C)(C)OC(=O)N[C@@H]1CCN(C(c2ccncc2)c2cc3c(cc2O)OC(C)(C)O3)C1 (stereo partly drawn)", 6.22],
  ["CN(C(=O)OC(C)(C)C)[C@@H]1CCN(C(c2ccncc2)c2cc3c(cc2O)OCO3)C1 (stereo partly drawn)", 6.19],
  ["CC(C)(C)OC(=O)N[C@@H]1CCN(C(c2cccc(-c3ccncc3)c2)c2cc3c(cc2O)OCO3)C1 (stereo partly drawn)", 6.65],
  ["COc1ccc(OC)c(C(c2ccncc2)N2CC[C@@H](NC(=O)OC(C)(C)C)C2)c1O (stereo partly drawn)", 6.67],
  ["O=C(NC[C@@H]1CCN(C(c2ccncc2)c2cc3c(cc2O)OCO3)C1)C1CC1 (stereo partly drawn)", 6.71],
  ["CC(C)(C)OC(=O)N[C@@H]1CCN(C(c2cccc(C#N)c2)c2cc3c(cc2O)OCO3)C1 (stereo partly drawn)", 6.32],
  ["CC(C)(C)OC(=O)N[C@@H]1CCN(C(c2ccc(-n3cncn3)cc2)c2cc3c(cc2O)OCO3)C1 (stereo partly drawn)", 7.25],
  ["CC(C)(C)OC(=O)N[C@@H]1CCN(C(c2cccc(-c3cccnc3)c2)c2cc3c(cc2O)OCO3)C1 (stereo partly drawn)", 6.74],
  ["CC(C)(C)OC(=O)N[C@@H]1CCN(C(c2cccc(-n3ccnc3)c2)c2cc3c(cc2O)OCO3)C1 (stereo partly drawn)", 6.96],
  ["Cn1nccc1C(c1cc2c(cc1O)OCO2)N1CC[C@@H](NC(=O)OC(C)(C)C)C1 (stereo partly drawn)", 6.29]
]}

Data credit: ChEMBL document CHEMBL4831501
